tested on: 782815-120-R-J1-PDC complex spheroid viability; test: Anticancer human tumor 782815-120-R-J1-PDC patient-derived colon adenocarcinoma cell line growth inhibition [RAS]; conditions: second compound 0.1 µM; first compound 0.000949 µM; hits give low values
VALUE_TYPE: viability, T/C (%)
Provide only the numeric value, understood in %.

COMPOUND	VALUE_TYPE	ASSAY_RESULT
CC1(C)CCC(Nc2ncc(C(F)(F)F)c(-c3c[nH]c4c(P(C)(C)=O)c(C#N)ccc34)n2)CN1 (centres undefined) + C#Cc1c(F)ccc2cc(O)cc(-c3ncc4c(N5CC6CCC(C5)N6)nc(OCC56CCCN5CC(F)C6)nc4c3F)c12	viability, T/C	93.2
CCc1c2c(nc3ccc(O)cc13)-c1cc3c(c(=O)n1C2)COC(=O)[C@]3(O)CC + C=CC(=O)N1CCN(c2nc(OCC3CCCN3C)nc3c(F)c(-c4nc(N)cc(C)c4C(F)(F)F)c(Cl)cc23)C(C)C1	viability, T/C	92.8
CCc1c2c(nc3ccc(O)cc13)-c1cc3c(c(=O)n1C2)COC(=O)[C@]3(O)CC + C#Cc1c(F)ccc2cc(O)cc(-c3ncc4c(N5CC6CCC(C5)N6)nc(OCC56CCCN5CC(F)C6)nc4c3F)c12	viability, T/C	98.9

Then there is this compound:
q: Data request, read-out viability, T/C, for CC1(C)CCC(Nc2ncc(C(F)(F)F)c(-c3c[nH]c4c(P(C)(C)=O)c(C#N)ccc34)n2)CN1 (centres undefined) + C=CC(=O)N1CCN(c2nc(OCC3CCCN3C)nc3c(F)c(-c4nc(N)cc(C)c4C(F)(F)F)c(Cl)cc23)C(C)C1
a: 107

====

system: 782815-120-R-J1-PDC complex spheroid viability; assay: Anticancer human tumor 782815-120-R-J1-PDC cell line growth inhibition [RAS]; details: second compound 0.316 µM; first compound 3.16 µM; hits give low values;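 note: spheroids exposed to compounds for 7 days before reading; 100% = DMSO vehicle control viability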
compounds and their reported viability, T/C
// return numeric value only (unit: %, not printed)

Here's what some known entries look like.
COMPOUND	TARGET_OR_TEST_SYSTEM	UNIT_TAG	viability, T/C
Cc1nc(N2CCC3(CC2)COC(C)C3N)c(CO)nc1Sc1ccnc(N)c1Cl (centres undefined) + C#Cc1c(F)ccc2cc(O)cc(-c3ncc4c(N5CC6CCC(C5)N6)nc(OCC56CCCN5CC(F)C6)nc4c3F)c12	782815-120-R-J1-PDC complex spheroid viability	%	92.1
CC(Nc1ccc2c(c1)OCCn1cc(N3C(=O)OCC3C(F)F)nc1-2)C(N)=O (centres undefined) + C=CC(=O)N1CCN(c2nc(OCC3CCCN3C)nc3c(F)c(-c4nc(N)cc(C)c4C(F)(F)F)c(Cl)cc23)C(C)C1	782815-120-R-J1-PDC complex spheroid viability	%	85.1
Cc1nc(N2CCC3(CC2)COC(C)C3N)c(CO)nc1Sc1ccnc(N)c1Cl (centres undefined) + C=CC(=O)N1CCN(c2nc(OCC3CCCN3C)nc3c(F)c(-c4nc(N)cc(C)c4C(F)(F)F)c(Cl)cc23)C(C)C1	782815-120-R-J1-PDC complex spheroid viability	%	108

q: # get_value(readout= viability, T/C, system= 782815-120-R-J1-PDC complex spheroid viability) for C[C@@H](NC(=O)c1ncnc(N)c1Cl)c1ncc(C(=O)Nc2cc(C(F)(F)F)c(Cl)cn2)s1 + C=CC(=O)N1CCN(c2nc(OCC3CCCN3C)nc3c(F)c(-c4nc(N)cc(C)c4C(F)(F)F)c(Cl)cc23)C(C)C1
a: 85

src = PubChem BioAssay AID2060887
